Each recorded value in this set is attributed to paper PMC9856044.

Below, each entry is listed with its recorded ∆Tm.
test system: Tel22 (DNA, G4) AGGGTTAGGGTTAGGGTTAGGG; test: UV thermal melting, 260 nm; conditions: Na+ (sodium cacodylate, I = 0.1 M); pH 7.0; Tel22 2 µM, r = 1.0 (compound 2 µM)
The reply should be a number in °C, with the unit left off.

// returns reported ∆Tm for input COc1ccc2c(c1)SC(=Cc1[se]c3ccccc3[n+]1C)N2CCCS(=O)(=O)[O-] [Compound 2]
0

Endpoint output: ∆Tm of "C[n+]1c(C=C2Sc3ccccc3N2CCCS)[se]c2ccccc21" . Value?
2.1

New cases:
Form field: reported ∆Tm of "C[n+]1c(C=C2Sc3ccccc3N2CCS)[se]c2ccccc21"
2.0

Requested read-out: ∆Tm. Entry: "CN1C(=Cc2[se]c3ccccc3[n+]2C)Sc2ccccc21"
0.5

GET /values?readout=∆Tm&item= "CN1C(=Cc2[se]c3ccccc3[n+]2C)Sc2cc(Cl)ccc21"
2.1

Entry C[n+]1c(C=C2Sc3ccccc3N2CCCS(=O)(=O)[O-])[se]c2ccccc21 [Compound 1] : reported ∆Tm = ?
0

* * *

Counter-ions that a name gives are not always drawn.
We begin with a simple list: items and their reported melting point.

Looking for the measured melting point of CN1/C(=C/c2[se]c3ccccc3[n+]2C)Sc2ccccc21 (as salt: sulphate) [Compound 3] , can you help?
> 300 °C

Find the recorded melting point belonging to C[n+]1c(C=C2Sc3ccccc3N2CCCS(=O)(=O)[O-])[se]c2ccccc21 [Compound 1] and report it.
> 300 °C

# get_value(readout='melting point', item= COc1ccc2c(c1)SC(=Cc1[se]c3ccccc3[n+]1C)N2CCCS(=O)(=O)[O-] [Compound 2] )
> 300 °C

I have this molecule here, CN1/C(=C/c2[se]c3ccccc3[n+]2C)Sc2cc(Cl)ccc21 (as salt: sulphate) [Compound 4] , and I need its recorded melting point.
> 300 °C

Using the record for C[n+]1c(/C=C2\Sc3ccccc3N2CCS)[se]c2ccccc21 (as salt: sulphate) [Compound 6] , report its melting point.
245 to 247 °C

We now examine a further molecule.
Reported melting point, molecule C[n+]1c(/C=C2\Sc3ccccc3N2CCCS)[se]c2ccccc21 (as salt: sulphate) [Compound 5] : ____
233 to 236 °C

* * *

tested on: Tel22 (DNA, G4) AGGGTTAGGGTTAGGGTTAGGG; experiment: UV thermal melting, 260 nm; details: K+ (potassium phosphate, I = 0.1 M); pH 7.0; Tel22 2 µM, r = 1.0 (compound 2 µM)
Measured property: ∆Tm (°C)
Hi! Could you send only the number? It should be in °C, unit omitted.

As a guide, the following entries are already answered.
Item under review: "CN1C(=Cc2[se]c3ccccc3[n+]2C)Sc2ccccc21" . Reported ∆Tm?
0.5

Name the recorded ∆Tm for "C[n+]1c(C=C2Sc3ccccc3N2CCS)[se]c2ccccc21" .
6.9

Form field: reported ∆Tm of "C[n+]1c(C=C2Sc3ccccc3N2CCCS)[se]c2ccccc21"
5.1

Let's switch to this molecule now.
Bench note: what ∆Tm did "CN1C(=Cc2[se]c3ccccc3[n+]2C)Sc2cc(Cl)ccc21" show?
3.2
